Please provide measured phenotypically active for the entries that follow.
tested on: A549-TP53BP1-CLTA; assay: phenotypically active (imaging signature differs from DMSO and reproducible) at any of 0.3-9 uM (binary (1 = active, 0 = inactive)); higher = active; details: treatment time: 24 h
Counter-ions that a name gives are not always drawn.
Please give only the number in your answer, with no unit.

INPUT: Form field: phenotypically active recorded for CC(C)(C)NS(=O)(=O)c1cncc(-c2cc(F)c3nc(N)nn3c2)c1 with A549-TP53BP1-CLTA (enter value)
OUTPUT: 0

INPUT: Form field: phenotypically active recorded for CC(=O)Nc1nnc(S(N)(=O)=O)s1 [acetazolamide] with A549-TP53BP1-CLTA (enter value)
OUTPUT: 0

INPUT: Form field: phenotypically active recorded for Cc1c(-c2ccccc2)oc2c(C(=O)OCCN3CCCCC3)cccc2c1=O [flavoxate] with A549-TP53BP1-CLTA (enter value)
OUTPUT: 0

INPUT: Form field: phenotypically active recorded for O=C1N=C(NCc2cccs2)S/C1=C\c1ccc2ncccc2c1 with A549-TP53BP1-CLTA (enter value)
OUTPUT: 1

INPUT: Form field: phenotypically active recorded for CO[C@H]1C=CO[C@@]2(C)Oc3c(C)c(O)c4c(O)c(c5c(nc6cc(C)ccn65)c4c3C2=O)NC(=O)C(C)=CC=C[C@H](C)[C@H](O)[C@@H](C)[C@@H](O)[C@@H](C)[C@H](OC(C)=O)[C@@H]1C with A549-TP53BP1-CLTA (enter value)
OUTPUT: 0

INPUT: Form field: phenotypically active recorded for Cc1cccc(C)c1OCC(C)N (configuration not stated) with A549-TP53BP1-CLTA (enter value)
OUTPUT: 1

INPUT: Form field: phenotypically active recorded for COc1cc2ncnc(Nc3ccc(O)c(Br)c3)c2cc1OC with A549-TP53BP1-CLTA (enter value)
OUTPUT: 1

INPUT: Form field: phenotypically active recorded for NS(=O)(=O)c1cc(C2(O)NC(=O)c3ccccc32)ccc1Cl (configuration not stated) with A549-TP53BP1-CLTA (enter value)
OUTPUT: 0

INPUT: Form field: phenotypically active recorded for CC/C(=C(/c1ccccc1)c1ccc(OCCN(C)C)cc1)c1ccccc1 with A549-TP53BP1-CLTA (enter value)
OUTPUT: 0

INPUT: Form field: phenotypically active recorded for C=C1CC[C@H](O)C/C1=C\C=C1\CCC[C@]2(C)[C@@H]([C@H](C)/C=C/[C@H](C)C(C)C)CC[C@@H]12 with A549-TP53BP1-CLTA (enter value)
OUTPUT: 0

INPUT: Form field: phenotypically active recorded for COc1cc(C(=O)NC2CCN(C)CC2)c(F)cc1Nc1ncc2c(n1)N(C1CCCC1)CC(F)(F)C(=O)N2C [TAK 960 hydrochloride] with A549-TP53BP1-CLTA (enter value)
OUTPUT: 1

INPUT: Form field: phenotypically active recorded for CC1=C(C(=O)Nc2cc3cn[nH]c3cc2F)C(c2ccc(C(F)(F)F)cc2)CC(=O)N1 (configuration not stated) with A549-TP53BP1-CLTA (enter value)
OUTPUT: 1

----------
system: HepG2-TP53BP1-CLTA; experiment: phenotypically active (imaging signature differs from DMSO and reproducible) at any of 0.3-9 uM (binary (1 = active, 0 = inactive)); higher = active; details: treatment time: 24 h
Counter-ions that a name gives are not always drawn.
Bench note: report the call from Y (active), N (inactive)

INPUT: Identify the outcome logged in this assay for the molecule shown: Oc1ccc(-c2nc(-c3ccc(F)cc3)c(-c3ccncc3)[nH]2)cc1
OUTPUT: Y

INPUT: Identify the outcome logged in this assay for the molecule shown: CC1(C)CC(=O)c2c(S(C)(=O)=O)sc(Cl)c2C1
OUTPUT: N

INPUT: Identify the outcome logged in this assay for the molecule shown: CCOc1cc([C@@H](CS(C)(=O)=O)N2C(=O)c3cccc(NC(C)=O)c3C2=O)ccc1OC
OUTPUT: N

INPUT: Identify the outcome logged in this assay for the molecule shown: Cc1ccc2ccc(C(Nc3ccccc3)c3ccccc3)c(O)c2n1 (stereo unspecified)
OUTPUT: N

INPUT: Identify the outcome logged in this assay for the molecule shown: C#C[C@]1(O)CC[C@H]2[C@@H]3CCc4cc(OC)ccc4[C@H]3CC[C@@]21C
OUTPUT: N

INPUT: Identify the outcome logged in this assay for the molecule shown: CN1CCN(C(=O)CN[C@H]2C[C@@H]2c2ccc(OCc3ccccc3)cc2)CC1 [RN 1 dihydrochloride]
OUTPUT: Y

INPUT: Identify the outcome logged in this assay for the molecule shown: COc1ccc(CCN(C)CCCN2CCc3cc(OC)c(OC)cc3CC2=O)cc1OC
OUTPUT: N

INPUT: Identify the outcome logged in this assay for the molecule shown: CC(=O)NCCCS(=O)(=O)O [acamprosate]
OUTPUT: N

INPUT: Identify the outcome logged in this assay for the molecule shown: CO[C@H]1C[C@@H]2CC[C@@H](C)[C@@](O)(O2)C(=O)C(=O)N2CCCC[C@H]2C(=O)O[C@H]([C@H](C)C[C@@H]2CC[C@@H](OC(=O)C(C)(CO)CO)[C@H](OC)C2)CC(=O)[C@H](C)C=C(C)[C@@H](O)[C@@H](OC)C(=O)[C@H](C)C[C@H](C)C=CC=CC=C1C
OUTPUT: Y

INPUT: Identify the outcome logged in this assay for the molecule shown: COc1ccc(C2(CNC(=O)c3ccc(NC(=O)c4ccco4)cc3)CCOCC2)cc1
OUTPUT: N

INPUT: Identify the outcome logged in this assay for the molecule shown: NS(=O)(=O)c1nn2cc(-c3ccccc3)nc2s1
OUTPUT: N

INPUT: Identify the outcome logged in this assay for the molecule shown: CC(=O)CCCCn1c(=O)c2c(ncn2C)n(C)c1=O
OUTPUT: N

INPUT: Identify the outcome logged in this assay for the molecule shown: C[C@@H]1O[C@@H](O[C@H]2[C@H](Oc3cc(O)c4c(c3)O[C@H](c3ccc(O)cc3)CC4=O)O[C@H](CO)[C@@H](O)[C@@H]2O)[C@H](O)[C@H](O)[C@H]1O [Naringin hydrate]
OUTPUT: N

INPUT: Identify the outcome logged in this assay for the molecule shown: COc1cc(C)c(/C=C/C(C)=C/C=C/C(C)=C/C(=O)O)c(C)c1C
OUTPUT: N

INPUT: Identify the outcome logged in this assay for the molecule shown: N#CC[C@@H](C1CCCC1)n1cc(-c2ncnc3[nH]ccc23)cn1 [ruxolitinib-(S)]
OUTPUT: Y

INPUT: Identify the outcome logged in this assay for the molecule shown: CN1C/C(=C/c2ccc(B(O)O)cc2)C(=O)/C(=C/c2ccc(B(O)O)cc2)C1
OUTPUT: Y

INPUT: Identify the outcome logged in this assay for the molecule shown: COc1cc(C[C@H]2C(=O)OC[C@@H]2Cc2ccc(OC)c(OC)c2)ccc1O
OUTPUT: Y

INPUT: Identify the outcome logged in this assay for the molecule shown: O=C1NC(=O)C(c2ccccc2[N+](=O)[O-])=C1Nc1ccc(O)c(Cl)c1
OUTPUT: Y

INPUT: Identify the outcome logged in this assay for the molecule shown: C[C@@H](CN1CCC(n2c(=O)[nH]c3cc(Cl)ccc32)CC1)NC(=O)c1ccc2ccccc2c1
OUTPUT: Y

INPUT: Identify the outcome logged in this assay for the molecule shown: OCCn1cc(-c2cnc3nnn(Cc4ccc5ncccc5c4)c3n2)cn1
OUTPUT: N

INPUT: Identify the outcome logged in this assay for the molecule shown: CC[N+](CC)(CCNC(=O)C(=O)NCC[N+](CC)(CC)Cc1ccccc1Cl)Cc1ccccc1Cl
OUTPUT: N

INPUT: Identify the outcome logged in this assay for the molecule shown: COc1cc(OC)c2cc(-c3ccncc3)cnc2c1 [DMPQ dihydrochloride]
OUTPUT: N

INPUT: Identify the outcome logged in this assay for the molecule shown: CC/C(=C(\CC)c1ccc(O)c(CN(CC)CC)c1)c1ccc(O)c(CN(CC)CC)c1
OUTPUT: Y

INPUT: Identify the outcome logged in this assay for the molecule shown: COc1cc2c(cc1-c1c(C)noc1C)ncc1[nH]c(=O)n([C@H](C)c3ccccn3)c12 [I-BET 151 dihydrochloride]
OUTPUT: Y

INPUT: Identify the outcome logged in this assay for the molecule shown: COc1nc(N)nc2c1ncn2[C@@H]1O[C@H](CO)[C@@H](O)[C@@H]1O
OUTPUT: N

INPUT: Identify the outcome logged in this assay for the molecule shown: O=C(/C=C/N1C[C@H]2C[C@@H]1CN2c1ccccn1)c1ccccc1O
OUTPUT: N

INPUT: Identify the outcome logged in this assay for the molecule shown: O=C(Nc1c(Cl)cncc1Cl)c1ccc(OC(F)F)c(OCC2CC2)c1
OUTPUT: N

INPUT: Identify the outcome logged in this assay for the molecule shown: Cc1nc[nH]c1C1CCN(c2nc3cccc4c3n2CCC4=O)CC1
OUTPUT: Y

INPUT: Identify the outcome logged in this assay for the molecule shown: COc1ccc(-c2cnc(-c3cccc4c3-c3ccccc3C4=O)o2)cc1
OUTPUT: N

INPUT: Identify the outcome logged in this assay for the molecule shown: O=C(CCCN1CCC(O)(c2ccc(Cl)cc2)CC1)c1ccc(F)cc1
OUTPUT: Y

INPUT: Identify the outcome logged in this assay for the molecule shown: CCCCCOC(=O)Nc1nc(=O)n([C@@H]2O[C@H](C)[C@@H](O)[C@H]2O)cc1F
OUTPUT: N
